Values from patent US8088805B2

Reported pIC50 is given for each of the following molecules.
experimental target: cloned recombinant human HDAC-1 enzyme (Homo sapiens, UniProt Q13547)
Sequence (Q13547 whole entry): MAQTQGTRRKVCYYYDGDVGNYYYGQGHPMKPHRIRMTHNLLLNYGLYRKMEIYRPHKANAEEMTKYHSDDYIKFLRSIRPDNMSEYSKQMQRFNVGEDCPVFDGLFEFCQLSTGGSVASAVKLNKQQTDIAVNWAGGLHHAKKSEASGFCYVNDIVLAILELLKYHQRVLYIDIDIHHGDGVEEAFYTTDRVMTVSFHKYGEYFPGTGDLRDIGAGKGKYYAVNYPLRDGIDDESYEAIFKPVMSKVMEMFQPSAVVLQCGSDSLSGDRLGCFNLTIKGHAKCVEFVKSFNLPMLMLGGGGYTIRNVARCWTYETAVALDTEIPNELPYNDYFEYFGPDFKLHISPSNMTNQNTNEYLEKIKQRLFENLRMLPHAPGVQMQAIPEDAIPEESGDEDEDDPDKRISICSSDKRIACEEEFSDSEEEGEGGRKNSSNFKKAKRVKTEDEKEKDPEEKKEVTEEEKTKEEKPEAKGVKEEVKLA
assay overview: HDAC-1 enzymatic inhibition, Assay 1 ([3H]-acetylated histone substrate)
run conditions: Assay 1: [3H]-labeled acetylated histone substrate, recombinant hHDAC-1
pIC50: −log10 of the molar value.

Before answering, review these 6 worked examples.
>  <molecule>
Nc1ccccc1NC(=O)c1ccc(CNc2ncc(-c3cccnc3)cn2)cc1 [13e]

>  <pIC50>
5.30 to 6.00

$$$$
>  <molecule>
Nc1ccccc1NC(=O)c1ccc(CNc2ccnc(-c3cccnc3)n2)cc1 [compound 47]

>  <pIC50>
5.30 to 6.00

$$$$
>  <molecule>
Nc1ccccc1NC(=O)c1ccc(CNc2nccc(-c3ccc(F)c(F)c3)n2)cc1 [16d]

>  <pIC50>
6.00 to 7.00

$$$$
>  <molecule>
COc1cc(NCc2ccc3oc(C(=O)Nc4ccccc4N)cc3c2)cc(OC)c1OC [compound 308]

>  <pIC50>
5.30 to 6.00

$$$$
>  <molecule>
Nc1ccccc1NC(=O)c1ccc(CNc2nccc(-c3ccc(CN4CCOCC4)cc3)n2)cc1 [compound 44]

>  <pIC50>
5.30 to 6.00

$$$$
>  <molecule>
Nc1ccccc1NC(=O)c1ccc(CNc2nccc(-c3ccccn3)n2)cc1 [26b]

>  <pIC50>
5.30 to 6.00

$$$$

Please fill in: pIC50 reported for CSc1nc(NCc2ccc(C(=O)Nc3ccccc3N)cc2)cc(-c2cccnc2)n1 [61a] = 5.30 to 6.00

Please fill in: pIC50 reported for Nc1ccccc1NC(=O)c1ccc(CNc2cncc(-c3cccnc3)n2)cc1 [compound 63] = 5.30 to 6.00

Please fill in: pIC50 reported for Nc1ccccc1NC(=O)c1ccc(CNc2nc3ccc(O)cc3s2)cc1 [compound 134] = 5.30 to 6.00

----------
Test system: HCT116 cells
assay overview: MTT assay
Format: cell-based
run conditions: Homo sapiens, HCT-116, 72 hours
pIC50: −log10 of the molar value.
measured property: pIC50

Before answering, review these 8 worked examples.
>  <compound>
COc1cc(NCc2ccc3oc(C(=O)Nc4ccccc4N)cc3c2)cc(OC)c1OC [compound 308]

>  <pIC50>
6.00 to 7.00

$$$$
>  <compound>
Nc1ccccc1NC(=O)c1ccc(N2CC[C@H](Oc3ccc([N+](=O)[O-])cc3)C2)cc1 [compound 377]

>  <pIC50>
6.00 to 7.00

$$$$
>  <compound>
CN(C)CCOc1ccc2nc(NCc3ccc(C(=O)Nc4ccccc4N)cc3)sc2c1 [compound 138]

>  <pIC50>
≥ 7.00

$$$$
>  <compound>
COc1cccc(CCNc2ccnc(NCc3ccc(C(=O)Nc4ccccc4N)cc3)n2)c1 [10c]

>  <pIC50>
6.00 to 7.00

$$$$
>  <compound>
Nc1ccccc1NC(=O)c1ccc(N2CC[C@H](Nc3cccnc3)C2)cc1 [compound 361]

>  <pIC50>
6.00 to 7.00

$$$$
>  <compound>
Nc1ccccc1NC(=O)c1ccc(CNc2nccc(-c3ccc(CN4CCOCC4)cc3)n2)cc1 [compound 44]

>  <pIC50>
≥ 7.00

$$$$
>  <compound>
Nc1ccccc1NC(=O)c1ccc(N2CC[C@@H](Oc3cccnc3)C2)cc1 [compound 368]

>  <pIC50>
6.00 to 7.00

$$$$
>  <compound>
Nc1ccccc1NC(=O)c1ccc(N2CC[C@H](Oc3ccccc3)C2)cc1 [compound 371]

>  <pIC50>
6.00 to 7.00

$$$$

Please fill in: pIC50 reported for Nc1ccccc1NC(=O)c1ccc(N2CC[C@@H](Nc3cccnc3)C2)cc1 [compound 366] = 5.30 to 6.00

Please fill in: pIC50 reported for Nc1ccccc1NC(=O)c1ccc(N2CC[C@H](Oc3ccc(Oc4ccccc4)cc3)C2)cc1 [compound 376] = 5.30 to 6.00

Please fill in: pIC50 reported for Nc1ccccc1NC(=O)c1ccc(CNc2nccc(-c3ccc(F)c(F)c3)n2)cc1 [16d] = 6.00 to 7.00

Please fill in: pIC50 reported for CSc1nc(NCc2ccc(C(=O)Nc3ccccc3N)cc2)cc(-c2cccnc2)n1 [61a] = ≥ 7.00

Please fill in: pIC50 reported for Nc1ccccc1NC(=O)c1ccc(CNc2cc(-c3cccnc3)ncn2)cc1 [61b] = ≥ 7.00
